test system: BrCr Lab Strain of EV-A71; assay: Antiviral activity against the BrCr lab strain of EV-A71 in RD cells (CPE reduction, MTS/PMS); assay type: cell-based; details: Enterovirus A, EVA71; BrCr lab strain, RD cells; 50% reduction of virus-induced CPE; read-out: EC50
measurementLabel: EC50

INSERT INTO measurements (compound, recordedvalue) VALUES
  ('CCOC(=O)c1ccc(OCCC2CCN(c3ccc(C)nn3)CC2)cc1 [pirodavir, reference compound]', '300 nM');

====

experiment: in vitro; settings: human
measurementLabel: CC50 at 120 h (µM)

INSERT INTO measurements (molecule, recordedvalue) VALUES
  ('O=C(CCOCC(COCCC(=O)NC(Cc1c[nH]c2c(-c3cc(C(=O)O)cc(C(=O)O)c3)cccc12)C(=O)O)(COCCC(=O)NC(Cc1c[nH]c2c(-c3cc(C(=O)O)cc(C(=O)O)c3)cccc12)C(=O)O)COCCC(=O)NC(Cc1c[nH]c2c(-c3cc(C(=O)O)cc(C(=O)O)c3)cccc12)C(=O)O)NC(Cc1c[nH]c2c(-c3cc(C(=O)O)cc(C(=O)O)c3)cccc12)C(=O)O (stereo not shown)', 75);

====

Listed below: EC50 values for each entry.
test system: BrCr Lab Strain of EV-A71; assay: Antiviral activity against the BrCr lab strain of EV-A71 in RD cells (CPE reduction, MTS/PMS); assay type: cell-based; settings: Enterovirus A, EVA71, RD, BrCr lab strain, RD cells; 50% reduction of virus-induced CPE; read-out: EC50
measurementLabel: EC50

INSERT INTO assay_data (compound, recordedvalue) VALUES
  ('O=C(CCOCC(COCCC(=O)NC(Cc1c[nH]c2c(-c3ccc(C(=O)O)cc3)cccc12)C(=O)O)(COCCC(=O)NC(Cc1c[nH]c2c(-c3ccc(C(=O)O)cc3)cccc12)C(=O)O)COCCC(=O)NC(Cc1c[nH]c2c(-c3ccc(C(=O)O)cc3)cccc12)C(=O)O)NC(Cc1c[nH]c2c(-c3ccc(C(=O)O)cc3)cccc12)C(=O)O (centres unmarked)', '1700 nM'),
  ('O=C(CCOCC(COCCC(=O)NC(Cc1c(-c2ccc(C(=O)O)cc2)[nH]c2c(-c3ccc(C(=O)O)cc3)cccc12)C(=O)O)(COCCC(=O)NC(Cc1c(-c2ccc(C(=O)O)cc2)[nH]c2c(-c3ccc(C(=O)O)cc3)cccc12)C(=O)O)COCCC(=O)NC(Cc1c(-c2ccc(C(=O)O)cc2)[nH]c2c(-c3ccc(C(=O)O)cc3)cccc12)C(=O)O)NC(Cc1c(-c2ccc(C(=O)O)cc2)[nH]c2c(-c3ccc(C(=O)O)cc3)cccc12)C(=O)O (centres unmarked)', '100 nM');

====

Listed below: pEC50 values for each entry.
system: BrCr Lab Strain of EV-A71; test: Antiviral activity against the BrCr lab strain of EV-A71 in RD cells (CPE reduction, MTS/PMS); format: cell-based; settings: Enterovirus A, EVA71, RD, BrCr lab strain, RD cells; 50% reduction of virus-induced CPE; read-out: EC50
pEC50: −log10 of the molar value.
measurementLabel: pEC50

INSERT INTO measurements (molecule, recordedvalue) VALUES
  ('O=C(CCC(CCC(=O)NC(Cc1c[nH]c2c(-c3cc(C(=O)O)cc(C(=O)O)c3)cccc12)C(=O)O)(CCC(=O)NC(Cc1c[nH]c2c(-c3cc(C(=O)O)cc(C(=O)O)c3)cccc12)C(=O)O)[N+](=O)[O-])NC(Cc1c[nH]c2c(-c3cc(C(=O)O)cc(C(=O)O)c3)cccc12)C(=O)O (centres unmarked) [Compound 16]', 5.92),
  ('O=C(CCOCC(COCCC(=O)NC(Cc1c[nH]c2c(-c3cc(C(=O)O)cc(C(=O)O)c3)cccc12)C(=O)O)(COCCC(=O)NC(Cc1c[nH]c2c(-c3cc(C(=O)O)cc(C(=O)O)c3)cccc12)C(=O)O)COCCC(=O)NC(Cc1c[nH]c2c(-c3cc(C(=O)O)cc(C(=O)O)c3)cccc12)C(=O)O)NC(Cc1c[nH]c2c(-c3cc(C(=O)O)cc(C(=O)O)c3)cccc12)C(=O)O (centres unmarked) [Compound 23]', 6.52);

====

test: Cytotoxicity in MT-4 cells (MTS/PES); conditions: human
Listed below: CC50 at 5 days values for each entry.
measurementLabel: CC50 at 5 days

INSERT INTO assay_data (compound, measurementlabel, recordedvalue) VALUES
  ('CN[C@@H]1[C@H](O[C@@H]2OC[C@@H](O)[C@H](O)[C@H]2O)[C@@H](O)[C@H](O[C@H]2c3cc(C)c(C(=O)N[C@H](C)C(=O)O)c(O)c3-c3c(cc4c(c3O)C(=O)c3cc(OC)cc(O)c3C4=O)[C@@H]2O)O[C@@H]1C [PRM-A, pradimicin A, reference compound]', 'CC50 at 5 days', '> 100 µM'),
  ('NC(Cc1c(-c2cc(C(=O)O)cc(C(=O)O)c2)[nH]c2c(-c3cc(C(=O)O)cc(C(=O)O)c3)cc(-c3cc(C(=O)O)cc(C(=O)O)c3)cc12)C(=O)O (centres unmarked) [Compound 37]', 'CC50 at 5 days', '> 100 µM');

====

test: in vitro; details: human
Listed below: CC50 values for each entry.
measurementLabel: CC50

INSERT INTO assay_data (compound, recordedvalue) VALUES
  ('O=C(CCOCC(COCCC(=O)NC(Cc1c(-c2cc(C(=O)O)cc(C(=O)O)c2)[nH]c2c(-c3cc(C(=O)O)cc(C(=O)O)c3)cccc12)C(=O)O)(COCCC(=O)NC(Cc1c(-c2cc(C(=O)O)cc(C(=O)O)c2)[nH]c2c(-c3cc(C(=O)O)cc(C(=O)O)c3)cccc12)C(=O)O)COCCC(=O)NC(Cc1c(-c2cc(C(=O)O)cc(C(=O)O)c2)[nH]c2c(-c3cc(C(=O)O)cc(C(=O)O)c3)cccc12)C(=O)O)NC(Cc1c(-c2cc(C(=O)O)cc(C(=O)O)c2)[nH]c2c(-c3cc(C(=O)O)cc(C(=O)O)c3)cccc12)C(=O)O (centres unmarked) [Compound 33]', '> 100 µM'),
  ('O=C(CCOCC(COCCC(=O)NC(Cc1c[nH]c2c(-c3cc(C(=O)O)cc(C(=O)O)c3)cccc12)C(=O)O)(COCCC(=O)NC(Cc1c[nH]c2c(-c3cc(C(=O)O)cc(C(=O)O)c3)cccc12)C(=O)O)COCCC(=O)NC(Cc1c[nH]c2c(-c3cc(C(=O)O)cc(C(=O)O)c3)cccc12)C(=O)O)NC(Cc1c[nH]c2c(-c3cc(C(=O)O)cc(C(=O)O)c3)cccc12)C(=O)O (centres unmarked) [Compound 23]', '> 55 µM');

====

test: in vitro; conditions: human
measurementLabel: CC50 at 3 days

INSERT INTO measurements (molecule, recordedvalue) VALUES
  ('CCOC(=O)c1ccc(OCCC2CCN(c3ccc(C)nn3)CC2)cc1 [pirodavir, reference compound]', '> 100 µM');

The origin of these recorded values is paper PMC8389807.
